Test system: HACAT
Experiment: qHTS assay to identify novel small-molecules to repurpose for Merkel cell carcinoma treatment (AID 1296009); further: nearly all actives have a fitted effect of over 60% in size
Settings: MCC and control cell lines, CellTiter-Glo viability, 72 h; series mostly up to 44.8 µM
Records with an inconclusive call do not appear. Calls of active or inactive are those of the source. The call rests on the fitted dose curve; in most records, active means well fitted inhibition curve with a large enough effect; inconclusive means small, poorly fitted or top-dose-only effect; inactive means flat fitted curve, though single readings scatter.
Labels: active, inactive

>>> class("Cc1ccc(S(=O)(=O)Nc2cc(Cl)ccc2C(=O)Nc2nc(-c3ccccc3)cs2)cc1")
"inactive"
>>> class("C=CC(=O)N1CCC[C@@H](n2nc(-c3ccc(Oc4ccccc4)cc3)c3c(N)ncnc32)C1")
"active"
>>> class("CN1CCN(c2cc(C(=O)Nc3ccc4c(c3)-c3c(c(C(N)=O)nn3-c3ccc(F)cc3)CC4)c(Cl)cn2)CC1")
"inactive"
>>> class("C1Cc2[nH]nc(-c3nn[nH]n3)c2C1")
"inactive"
>>> class("COc1cc(C(C)C)c2c(c1)S(=O)(=O)N(COc1cc(=O)n3cccc(OCCN4CCCCC4)c3n1)C2=O")
"inactive"
>>> class("O=C(CCCCCCC(=O)Nc1ccc([C@H]2O[C@@H](CSc3nc(-c4ccccc4)c(-c4ccccc4)o3)C[C@@H](c3ccc(CO)cc3)O2)cc1)NO")
"inactive"
>>> class("Nc1ccc(S(=O)(=O)Nc2ncccn2)cc1")
"inactive"
>>> class("CNC(=O)c1c(F)cccc1Nc1nc(Nc2cc3c(cc2OC)CCN3C(=O)CN(C)C)nc2[nH]ccc12")
"inactive"
>>> class("COc1ccc2c(OCc3nnc4ccc(-c5ccccc5)nn34)ccnc2c1")
"inactive"
